Data provenance is patent US20210115040A1.

molecular target: OGA (Homo sapiens, UniProt O60502); construct: HEK293 cells inducible for P301L mutant human Tau (isoform 2N4R) were established at Janssen; endogenous in cells; host or cells: HEK293 cells inducible for P301L mutant human Tau (2N4R); assay: OGA cellular assay (ICC detection of O-GlcNAcylated proteins in HEK293 cells inducible for P301L mutant human Tau); assay type: cell-based; conditions: HEK293 cells inducible for P301L mutant human Tau, 6 hours incubation; read-out: Cellular hOGA; pEC50 (converted)
Measured EC50 by item

Cc1cc(NCC2CCCN(C(C)c3ccc4sc(C)nc4n3)C2)cc(C)n1 (single isomer, unassigned) [Compound 106] ... 0.00631 µM
Cc1cc(C[C@H]2CCCN(C(C)c3ccc4nc(C)sc4c3)C2)cc(C)n1 (mixture of isomers) [Compound 51] ... > 1 µM
Cc1cc(C[C@H]2CCCN(C(C)c3ccc4cn(C)nc4c3)C2)cc(C)n1 (mixture of isomers) [Compound 16] ... > 1 µM

Reported EC50 ( Cc1cc([C@H]2CCCN([C@@H](C)c3ccc4sc(C)nc4n3)C2)nc(C)n1 (racemic) [Compound 71] ) = > 1 µM

###

target: recombinant human Meningioma Expressed Antigen 5 (MGEA5), also referred to as O-GlcNAcase (OGA) (Homo sapiens); construct: Full length OGA enzyme was purchased at OriGene (cat #TP322411); purchased OriGene TP322411; experiment: OGA biochemical assay (inhibition of FM-GlcNAc hydrolysis, fluorescence); conditions: FM-GlcNAc substrate, maximal effect, read-out: Enzymatic Emax (%)
METRIC NAME: Emax (%)

Cc1cc(C[C@H]2CCCN(C(C)c3cnc4oc(C)nc4c3)C2)cc(C)n1 (mixture of isomers) [Compound 30] ... 102
Cc1cc(C[C@@H]2CCN(C(C)c3cc4nc(C)oc4cc3F)C2)cc(C)n1 (mixture of isomers) [Compound 33ab] ... 99
Cc1cc(C)nc(CO[C@@H]2CCN(C(C)c3ccc4sc(C)nc4n3)C2)c1 (stereo partly shown) [Compound 80] ... 85
Cc1cc(OC[C@@H]2CCN(C(C)c3ccc4sc(C)nc4n3)C2)cc(C)n1 (mixture of isomers) [Compound 47] ... 99
Cc1cc(C2CCCN(C(C)c3ccc4oc(C)nc4n3)C2)cc(C(F)(F)F)n1 (racemic) [Compound 19] ... 99
Cc1cc(CO[C@H]2CCCN(C(C)c3ccc4sc(C)nc4n3)C2)cc(C)n1 (stereo partly shown) [Compound 66] ... 100
Cc1cc(C2CCCN(C(C)c3cc4nc(C)sc4cc3F)C2)cc(C)n1 (stereo not shown) [Compound 89] ... 102

###

Molecular target: OGA (Homo sapiens)
Construct: HEK293 cells inducible for P301L mutant human Tau (isoform 2N4R) were established at Janssen; endogenous in cells; host or cells: HEK293 cells inducible for P301L mutant human Tau (2N4R)
Sequence (O60502 1-916): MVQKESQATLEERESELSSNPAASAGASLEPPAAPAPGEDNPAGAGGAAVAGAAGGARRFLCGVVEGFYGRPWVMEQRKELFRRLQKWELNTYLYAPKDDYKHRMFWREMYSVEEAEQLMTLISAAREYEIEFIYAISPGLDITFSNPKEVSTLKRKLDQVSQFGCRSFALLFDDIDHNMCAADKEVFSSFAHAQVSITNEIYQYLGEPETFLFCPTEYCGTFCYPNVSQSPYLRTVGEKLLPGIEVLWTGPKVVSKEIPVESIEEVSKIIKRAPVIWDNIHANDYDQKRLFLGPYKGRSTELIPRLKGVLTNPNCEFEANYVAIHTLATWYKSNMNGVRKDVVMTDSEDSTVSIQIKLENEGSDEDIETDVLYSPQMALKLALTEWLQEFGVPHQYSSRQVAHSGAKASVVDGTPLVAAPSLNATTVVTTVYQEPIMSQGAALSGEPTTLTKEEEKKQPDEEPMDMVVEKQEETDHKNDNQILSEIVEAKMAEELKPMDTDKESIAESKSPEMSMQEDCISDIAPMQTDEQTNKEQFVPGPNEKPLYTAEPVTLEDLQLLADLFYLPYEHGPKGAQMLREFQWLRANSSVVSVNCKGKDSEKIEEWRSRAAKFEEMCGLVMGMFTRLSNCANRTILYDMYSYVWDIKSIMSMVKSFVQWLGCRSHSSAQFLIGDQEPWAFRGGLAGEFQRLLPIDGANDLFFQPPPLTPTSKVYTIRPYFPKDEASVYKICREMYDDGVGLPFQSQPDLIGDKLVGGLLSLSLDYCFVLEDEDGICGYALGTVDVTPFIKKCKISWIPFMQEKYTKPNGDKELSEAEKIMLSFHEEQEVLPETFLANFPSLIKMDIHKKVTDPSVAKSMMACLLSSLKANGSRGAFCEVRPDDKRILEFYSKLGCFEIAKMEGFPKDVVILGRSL
Assay: OGA cellular assay (ICC detection of O-GlcNAcylated proteins in HEK293 cells inducible for P301L mutant human Tau)
Format: cell-based
Conditions: HEK293, HEK293 cells inducible for P301L mutant human Tau, maximum = Thiamet G 200 uM
METRIC NAME: Emax (%)

Cc1cc(C[C@H]2CCCN(C(C)c3ccc4sc(C)nc4n3)C2)cc(C)n1 (single isomer, unassigned) [Compound 42b] ... 79
Cc1cc(C[C@H]2CCCN(C(C)c3cnc4oc(C)nc4c3)C2)cc(C)n1 (mixture of isomers) [Compound 30] ... 79
Cc1cc(C[C@@H]2CCN(C(C)c3nc4nc(C)sc4cc3F)C2)cc(C)n1 (mixture of isomers) [Compound 50] ... 77

###

target: OGA (Homo sapiens); construct: HEK293 cells inducible for P301L mutant human Tau (isoform 2N4R) were established at Janssen; endogenous in cells; host or cells: HEK293 cells inducible for P301L mutant human Tau (2N4R); experiment: OGA cellular assay (ICC detection of O-GlcNAcylated proteins in HEK293 cells inducible for P301L mutant human Tau); format: cell-based; settings: HEK293 cells inducible for P301L mutant human Tau, 6 hours incubation; read-out: Cellular hOGA; pEC50 (converted)
METRIC NAME: EC50 (nM)

A. Cc1cc(CO[C@H]2CCCN(C(C)c3ccc4sc(C)nc4n3)C2)cc(C)n1 (stereo partly drawn) [Compound 66]
B. Cc1cc(C[C@H]2CCCN([C@H](C)c3ccc4oc(C)nc4n3)C2)cc(C(F)(F)F)n1 [Compound 24a]
Exam item: Between A and B , whose recorded EC50 is greater? # answer = label of selected item
Marked response: A
(A: 501 nM, B: 39.8 nM)

I. COc1cc(OC[C@H]2CCCN(C(C)c3ccc4sc(C)nc4n3)C2)cc(C)n1 (mixture of isomers)
II. Cc1cc(C2CCCN(C(C)c3ccc4oc(C)nc4n3)C2)cc(C(F)(F)F)n1 (racemic)
III. Cc1cc(C2CCCN(C(C)c3ccc4sc(C)nc4n3)C2)c(F)c(C)n1 (single isomer, unassigned) [Compound 78]
Exam item: Sort these molecules on EC50 so the largest reading comes first. Use the labels to give the requested order.
Marked response: II, I, III
(II: 501 nM, I: 158 nM, III: 79.4 nM)

I. Cc1cc(C[C@H]2CCCN(Cc3ccc4[nH]c(C)nc4n3)C2)cc(C)n1
II. Cc1cc(C2CCCN(C(C)c3cc4nc(C)sc4cc3F)C2)cc(C)n1 (stereo not drawn) [Compound 89]
III. Cc1cc([C@H]2CCCN([C@@H](C)c3nc4nc(C)sc4cc3F)C2)cc(C)n1 (single isomer, unassigned)
Exam item: Sort these molecules on EC50 so the largest reading comes first. Use the labels to give the requested order.
Marked response: I, II, III

a. Cc1cc(C[C@H]2CCCN(Cc3ccc4sc(C)nc4n3)C2)cc(C)n1 (mixture of isomers)
b. Cc1cc(OC2CCCN(C(C)c3ccc4sc(C)nc4n3)C2)cc(C)n1 (stereo not drawn)
Exam item: Between a and b , whose recorded EC50 is greater? # answer = label of selected item
Marked response: b
(b: 794 nM, a: 501 nM)

###

biological target: recombinant human Meningioma Expressed Antigen 5 (MGEA5), also referred to as O-GlcNAcase (OGA) (Homo sapiens); construct: Full length OGA enzyme was purchased at OriGene (cat #TP322411); purchased OriGene TP322411; test: OGA biochemical assay (inhibition of FM-GlcNAc hydrolysis, fluorescence); settings: FM-GlcNAc substrate, 6 h at room temperature, read-out: Enzymatic hOGA, pIC50 (converted)
METRIC NAME: IC50 (nM)

Cc1cc(NC[C@H]2CCCN(C(C)c3ccc4sc(C)nc4n3)C2)nc(C)n1 (stereo partly drawn) ... 7.94

P. Cc1cc(C[C@@H]2CCN([C@@H](C)c3cc4nc(C)sc4cc3F)C2)cc(C)n1
Q. Cc1cc(C[C@H]2CCCN(C(C)c3ccc4nc(C)sc4c3)C2)cc(C)n1 (mixture of isomers)
Exam item: Between P and Q , whose recorded IC50 is greater? # answer = label of selected item
Marked response: Q
(Q: 501 nM, P: 2 nM)
